- Test system: LXRb homodimer (NR concentration 270 nM)
- test-summary: PBM binding z-score (relative to random genomic background probes); higher = stronger binding; sequences stand for … in GC…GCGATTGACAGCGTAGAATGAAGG
Criterion: PBM binding z-score meeting or surpassing -0.2. Met: met. Not met: not met.

record-sequence: CCTGCTAGTTCAATGGTCAGCTAAAGCAGCTCGC
category: met
//
record-sequence: CGAACTAGGTCACCAGGACAGTCAAGAGGTTGGA
category: not met
//
record-sequence: GATACAGGGTCAGCTTGAGGCCAGAGTATGGAAA
category: not met
//
record-sequence: TCTTGTTGATCAAAGGTTAAGAAAGCCGAAGCCT
category: met
//
record-sequence: ACTCGGGGGACAAAGGTCAGAGCTACGCCAGTGA
category: met
//
record-sequence: TTACCAAGGTGAAAGGTCGTTGAAGCACGCCTTG
category: not met

* * *

- Tested on: PPARg:RXRa 30nM:10nM, anti-RXR (NR concentration 30 nM, RXRa partner concentration 10 nM)
- test-summary: PBM binding z-score (relative to random genomic background probes); higher = stronger binding; sequences stand for … in GC…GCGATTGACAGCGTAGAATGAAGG
observed-property: PBM binding z-score

record-sequence: CGAACTAGTTCACCAGGACAGTGAAGAGGTTGGA
observed-property: PBM binding z-score
result-number: -0.289
--
record-sequence: AGTCAAATTTCACTAGGTAACGTAAGATTCAGCT
observed-property: PBM binding z-score
result-number: 0.197
--
record-sequence: TCTACTTGGTCACGGAGGTCACACACGACGGGTA
observed-property: PBM binding z-score
result-number: 3.72
--
record-sequence: CTATGTAGGTTAAGGGGGTCATTTAGTTTGAAAG
observed-property: PBM binding z-score
result-number: 6.07
--
record-sequence: ACTCGGAGGACAAAGGTAAGAGCTACGCCAGTGA
observed-property: PBM binding z-score
result-number: 1.74
--
record-sequence: CGTCAAAGTTCTAGGTAACGTAACAGAAAGCAGC
observed-property: PBM binding z-score
result-number: -0.178

* * *

- System: RARg:RXRa (NR concentration 270 nM, RXRa partner concentration 90 nM)
- test-summary: PBM binding z-score (relative to random genomic background probes); higher = stronger binding; sequences stand for … in GC…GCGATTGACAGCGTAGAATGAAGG
Criterion: PBM binding z-score meeting or surpassing 4. Met: t. Not met: f.

record-sequence: CGTCCAAGGTCAATTCTAGGTCAGTGAAAGCATT
category: t
//
record-sequence: CAAACTAGGTCACAGAGGACAAAGTCCGTGCGTA
category: t
//
record-sequence: CCTTACGGGTCACGGTTATAGCACGGGTGGTACG
category: t
//
record-sequence: CTATGTAGGTTAAGCGGGTCATTCAGTTTGAAAG
category: f
//
record-sequence: ATCGAAAGGTCGTGAGGTGTGTATACAGAAAGGC
category: t
//
record-sequence: ATATGGAGGTTAGCTGGGGTCATTCAGACTAGGC
category: t
//
record-sequence: TAGCCTAGGTGATTGGGCCAGTATAGTACGCATC
category: f
//
record-sequence: CTATGTAGGTGAAGGGGGTCATTCAGTTTGAAAG
category: t
//
record-sequence: CTATGTAGGTTAATGGGGTCATTCAGTTTGAAAG
category: t
//
record-sequence: CTATGTAGGTTAAGGGGGTCATTCTGTTTGAAAG
category: t
//
record-sequence: CGTTCAAGGTCATAGGAGGTCAGTGAAGACAGAT
category: t
//
record-sequence: CGAGCTAGGTCAAAGGACAGTGAAAGGCGACGTA
category: t
//
record-sequence: TCGAGTAGGTTACGGGGCCATTCAGGGATGAAGA
category: f
//
record-sequence: CAGACTAGGTCAAAGGTCAAAGTCGAGCCAACCA
category: t
//
record-sequence: ATCGAAAGGTCGTGACGTGAGTATACAGAAAGGC
category: t
//
record-sequence: CGAACTAGGTCCCCAGGACAGTGAAGAGGTTGGA
category: f
//
record-sequence: CCTACGGGGCCAAAGGTCATTGATTCCAATGCTC
category: t
//
record-sequence: TCGCGTAGGTTACGGGGGCATTCAGGGATGAAGA
category: f
//
record-sequence: GGTACGAGGGCAAAGTTGATAGCATCTGTCGACG
category: f
//
record-sequence: AATACAGGGTCACTAGGTCAGAGTAGGTACGAAT
category: t
//
record-sequence: CGAACTAGGTCCTTGACAGGACAGTGAATAGTAA
category: f
//
record-sequence: CTAACTAGGTCACCGGAAGGTCAAAGTCCGCATG
category: t
//
record-sequence: CCTACTGGGCCATTCAGAGGTTATTGATCATATG
category: f
//
record-sequence: ATGGAAAGGTCGTGAGGTGAGTATACAGAAAGGC
category: t
//
record-sequence: CAAACTAGGTCAAGGGGTCAAAGTCCGCTTCCCG
category: t

Where these numbers come from: the supplement of paper PMC6555819
